Where do these numbers come from? They come from paper PMC5540273.

Tested on: HCK
Conditions: concentration: 1 μM,replicates: in singlicate; n = 1;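 further: KINOMEscan kinase panel screen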
Measurement name: %Inh
Show the value, then the unit it is measured in.

## Input Which %Inh value belongs to Cc1ccc2c(-c3ccncc3)c(-c3ccc(F)cc3)nn2c1.Cl ?
## Output 0%

## Input Which %Inh value belongs to CCN(CC)CCOc1ccc(Nc2ncc3cc(-c4c(Cl)cccc4Cl)c(=O)n(C)c3n2)cc1 ?
## Output 99.7%

## Input Which %Inh value belongs to Cl.Cl.NC[C@H](Cc1ccc(C(F)(F)F)cc1)NC(=O)c1cc(Br)c(-c2ccnc3[nH]ccc23)s1 ?
## Output 0%

## Input Which %Inh value belongs to CC(C)N1C(=O)Cc2cc(Nc3ncc(C(F)(F)F)c(NCc4cccc(S(C)(=O)=O)c4)n3)ccc21 ?
## Output 0%

## Input Which %Inh value belongs to Cl.Oc1cc(-c2nc(-c3ccccc3)[nH]c2-c2ccncc2)ccc1Cl ?
## Output 69%

## Input Which %Inh value belongs to Cl.Cl.Nc1nc(-c2ccc3c(N)n[nH]c3c2)cc(N2CCCC(NC(=O)c3ccccc3)C2)n1 (stereo not shown) ?
## Output 0%

## Input Which %Inh value belongs to Cc1occc1-c1nc(N)c(OC[C@@H](N)Cc2c[nH]c3ccccc23)cc1-c1cc2c(C)n[nH]c2cn1 ?
## Output 14%

## Input Which %Inh value belongs to O=C(NCCCN1CCOC1=O)c1cnc(NCc2cc(Cl)ccc2Cl)nc1NC1CCCC1 ?
## Output 1%

## Input Which %Inh value belongs to Nc1nc(Nc2ccccc2)cc(-c2ccc3c(N)n[nH]c3c2)n1 ?
## Output 12%

## Input Which %Inh value belongs to Cc1ccc(-n2nc(C(C)(C)C)cc2NC(=O)Nc2ccc(OCCN3CCOCC3)c3ccccc23)cc1 ?
## Output 23%

----------
System: RPS6KA5(Kin.Dom.2-C-terminal)
Conditions: concentration: 1 μM,replicates: in singlicate; n = 1
Cut-off 20% on %Inh: below means Yes, at or above means No.

## Input Is %Inh strictly under 20% for the entry Cl.Cl.Nc1nc(-c2ccc3c(N)n[nH]c3c2)cc(N2CCCC(NC(=O)c3ccccc3)C2)n1 (centres unmarked) [GSK2286775] ?
## Output Yes

## Input Is %Inh strictly under 20% for the entry COc1ccc(C[C@@H](CN)NC(=O)c2cc(Br)c(-c3ccnc4[nH]ccc34)s2)cc1.Cl.Cl [GSK1389063] ?
## Output No

## Input Is %Inh strictly under 20% for the entry Cl.Cl.NC[C@H](CC1CCCCC1)NC(=O)c1cc(Br)c(-c2ccnc3[nH]ccc23)s1 [GSK1581427] ?
## Output Yes

## Input Is %Inh strictly under 20% for the entry Cl.Cl.NC[C@H](Cc1ccc(C(F)(F)F)cc1)NC(=O)c1cc(Br)c(-c2ccnc3[nH]ccc23)s1 [GSK1487252] ?
## Output No

## Input Is %Inh strictly under 20% for the entry CCN(CC)CCOc1ccc(Nc2ncc3cc(-c4c(Cl)cccc4Cl)c(=O)n(C)c3n2)cc1 [SB-601273] ?
## Output No

## Input Is %Inh strictly under 20% for the entry C[C@@H](Oc1cc(-c2cnn(C3CCNCC3)c2)cnc1N)c1c(Cl)ccc(F)c1Cl ?
## Output Yes

## Input Is %Inh strictly under 20% for the entry Cc1ccc(-n2nc(C(C)(C)C)cc2NC(=O)Nc2ccc(OCCN3CCOCC3)c3ccccc23)cc1 [GW839464] ?
## Output Yes

## Input Is %Inh strictly under 20% for the entry Nc1nc(Nc2ccccc2)cc(-c2ccc3c(N)n[nH]c3c2)n1 [GSK2225749] ?
## Output Yes

----------
Test system: AKT2
Conditions: concentration: 1 μM,replicates: in singlicate; n = 1
Measurement name: %Inh (%)
A number alone suffices; assume %.

## Input # get_value(readout= %Inh, system= AKT2) for CN(C)CC(O)COc1ccc(Nc2nccc(-c3cnn4nc(N5CCOCC5)ccc34)n2)cc1 (centres unmarked)
## Output 0

## Input # get_value(readout= %Inh, system= AKT2) for Cc1ccc(-n2nc(C(C)(C)C)cc2NC(=O)Nc2ccc(OCCN3CCOCC3)c3ccccc23)cc1
## Output 0

## Input # get_value(readout= %Inh, system= AKT2) for CC(C)Nc1cc(-c2ccc3c(N)n[nH]c3c2)nc(N)n1
## Output 15

## Input # get_value(readout= %Inh, system= AKT2) for Cl.Cl.Nc1nc(-c2ccc3c(N)n[nH]c3c2)cc(N2CCCC(NC(=O)c3ccccc3)C2)n1 (centres unmarked)
## Output 0

## Input # get_value(readout= %Inh, system= AKT2) for CNC(=O)c1ccccc1Sc1ccc2c(/C=C/c3ccccn3)n[nH]c2c1
## Output 0

## Input # get_value(readout= %Inh, system= AKT2) for Cc1n[nH]c2ccc(-c3cc(OC[C@@H](N)Cc4ccccc4)cnc3-c3ccoc3)cc12.O=C(O)C(F)(F)F.O=C(O)C(F)(F)F
## Output 84

## Input # get_value(readout= %Inh, system= AKT2) for NC(=O)c1cc(-c2ccccc2)cc2c(C3CCNCC3)c[nH]c12
## Output 14

## Input # get_value(readout= %Inh, system= AKT2) for CC(C)N1C(=O)Cc2cc(Nc3ncc(C(F)(F)F)c(NCc4cccc(S(C)(=O)=O)c4)n3)ccc21
## Output 0

----------
System: RIOK2
Settings: concentration: 1 μM,replicates: in singlicate; n = 1
Assignment: determine reported %Inh for the given molecules.
A number alone suffices; assume %.

## Input Which %Inh value belongs to CCN(CC)CCCCNc1ncc2cc(-c3c(Cl)cccc3Cl)c(NC(=O)NC(C)(C)C)nc2n1 ?
## Output 6

## Input Which %Inh value belongs to Cc1ccc2c(-c3ccncc3)c(-c3ccc(F)cc3)nn2c1.Cl ?
## Output 0

## Input Which %Inh value belongs to Cl.Cl.Nc1nc(-c2ccc3c(N)n[nH]c3c2)cc(N2CCCC(NC(=O)c3ccccc3)C2)n1 (stereo not shown) ?
## Output 9

## Input Which %Inh value belongs to Cc1occc1-c1nc(N)c(OC[C@@H](N)Cc2c[nH]c3ccccc23)cc1-c1cc2c(C)n[nH]c2cn1 ?
## Output 16

----------
Assignment: determine reported %Inh for the given molecules.
Tested on: RSK3(Kin.Dom.2-C-terminal)
Construct: gene RPS6KA2
Conditions: concentration: 1 μM,replicates: in singlicate; n = 1
A number alone suffices; assume %.

## Input # get_value(readout= %Inh, system= RSK3(Kin.Dom.2-C-terminal)) for CC(C)N1C(=O)Cc2cc(Nc3ncc(C(F)(F)F)c(NCc4cccc(S(C)(=O)=O)c4)n3)ccc21
## Output 26

## Input # get_value(readout= %Inh, system= RSK3(Kin.Dom.2-C-terminal)) for CC(C)Nc1cc(-c2ccc3c(N)n[nH]c3c2)nc(N)n1
## Output 12

## Input # get_value(readout= %Inh, system= RSK3(Kin.Dom.2-C-terminal)) for Cl.Oc1cc(-c2nc(-c3ccccc3)[nH]c2-c2ccncc2)ccc1Cl
## Output 0

## Input # get_value(readout= %Inh, system= RSK3(Kin.Dom.2-C-terminal)) for CCN(CC)CCOc1ccc(Nc2ncc3cc(-c4c(Cl)cccc4Cl)c(=O)n(C)c3n2)cc1
## Output 0

## Input # get_value(readout= %Inh, system= RSK3(Kin.Dom.2-C-terminal)) for Cc1ccc(-n2nc(C(C)(C)C)cc2NC(=O)Nc2ccc(OCCN3CCOCC3)c3ccccc23)cc1
## Output 4

## Input # get_value(readout= %Inh, system= RSK3(Kin.Dom.2-C-terminal)) for O=C(NCCCN1CCOC1=O)c1cnc(NCc2cc(Cl)ccc2Cl)nc1NC1CCCC1
## Output 13

## Input # get_value(readout= %Inh, system= RSK3(Kin.Dom.2-C-terminal)) for Cl.Cl.NC[C@H](CC1CCCCC1)NC(=O)c1cc(Br)c(-c2ccnc3[nH]ccc23)s1
## Output 0

## Input # get_value(readout= %Inh, system= RSK3(Kin.Dom.2-C-terminal)) for Cc1cc(C(=O)Nc2ccc(Oc3ccc4nc(NC(=O)C5CC5)cn4n3)cc2)nn1-c1ccccc1
## Output 6

----------
Tested on: MET
Settings: concentration: 1 μM,replicates: in singlicate; n = 1
Measurement name: %Inh (%)
A number alone suffices; assume %.

## Input Which %Inh value belongs to CCn1c(-c2nonc2N)nc2c(C#CC(C)(C)O)nc(OCCN)cc21.Cl.Cl [GSK902056] ?
## Output 0

## Input Which %Inh value belongs to CCN(CC)CCCCNc1ncc2cc(-c3c(Cl)cccc3Cl)c(NC(=O)NC(C)(C)C)nc2n1 ?
## Output 60

## Input Which %Inh value belongs to Cc1n[nH]c2ccc(-c3cc(OC[C@@H](N)Cc4ccccc4)cnc3-c3ccoc3)cc12.O=C(O)C(F)(F)F.O=C(O)C(F)(F)F [GSK507358] ?
## Output 0

## Input Which %Inh value belongs to CC(C)Nc1cc(-c2ccc3c(N)n[nH]c3c2)nc(N)n1 [GSK2221681] ?
## Output 0

## Input Which %Inh value belongs to CCN(CC)CCOc1ccc(Nc2ncc3cc(-c4c(Cl)cccc4Cl)c(=O)n(C)c3n2)cc1 [SB-601273] ?
## Output 78

## Input Which %Inh value belongs to COc1ccc(C[C@@H](CN)NC(=O)c2cc(Br)c(-c3ccnc4[nH]ccc34)s2)cc1.Cl.Cl [GSK1389063] ?
## Output 33

## Input Which %Inh value belongs to Cl.Cl.Nc1nc(-c2ccc3c(N)n[nH]c3c2)cc(N2CCCC(NC(=O)c3ccccc3)C2)n1 (stereo not drawn) [GSK2286775] ?
## Output 0

## Input Which %Inh value belongs to Cl.Cl.NC[C@H](Cc1ccc(C(F)(F)F)cc1)NC(=O)c1cc(Br)c(-c2ccnc3[nH]ccc23)s1 [GSK1487252] ?
## Output 2

## Input Which %Inh value belongs to O=C(NCCCN1CCOC1=O)c1cnc(NCc2cc(Cl)ccc2Cl)nc1NC1CCCC1 ?
## Output 63

## Input Which %Inh value belongs to C[C@@H]1CCN(C(=O)CC#N)C[C@@H]1N(C)c1ncnc2[nH]ccc12 ?
## Output 0

## Input Which %Inh value belongs to CN(C)CC(O)COc1ccc(Nc2nccc(-c3cnn4nc(N5CCOCC5)ccc34)n2)cc1 (stereo not drawn) [GW767488] ?
## Output 0

## Input Which %Inh value belongs to Cc1ccc(-n2nc(C(C)(C)C)cc2NC(=O)Nc2ccc(OCCN3CCOCC3)c3ccccc23)cc1 [GW839464] ?
## Output 9

## Input Which %Inh value belongs to CN(C)CCOc1ccc(-c2cc(-c3c[nH]nc3-c3ccccn3)ccn2)cc1 [GW835314] ?
## Output 2

## Input Which %Inh value belongs to CNC(=O)c1ccccc1Sc1ccc2c(/C=C/c3ccccn3)n[nH]c2c1 ?
## Output 12

## Input Which %Inh value belongs to Cl.Oc1cc(-c2nc(-c3ccccc3)[nH]c2-c2ccncc2)ccc1Cl [SB-386023] ?
## Output 9

## Input Which %Inh value belongs to CC(C)N1C(=O)Cc2cc(Nc3ncc(C(F)(F)F)c(NCc4cccc(S(C)(=O)=O)c4)n3)ccc21 ?
## Output 81

## Input Which %Inh value belongs to O=C(NCCNc1ccnc(NCc2ccc(F)cc2)n1)c1cc2ccccc2s1 [GSK1379944] ?
## Output 12

## Input Which %Inh value belongs to C=CC(=O)Nc1cc2c(Nc3ccc(F)c(Cl)c3)ncnc2cc1OCCCN1CCOCC1 [GW781483] ?
## Output 50
